B1: PhoQ; a variant is named by its letters at X, in order, P23837 (parent)
chain: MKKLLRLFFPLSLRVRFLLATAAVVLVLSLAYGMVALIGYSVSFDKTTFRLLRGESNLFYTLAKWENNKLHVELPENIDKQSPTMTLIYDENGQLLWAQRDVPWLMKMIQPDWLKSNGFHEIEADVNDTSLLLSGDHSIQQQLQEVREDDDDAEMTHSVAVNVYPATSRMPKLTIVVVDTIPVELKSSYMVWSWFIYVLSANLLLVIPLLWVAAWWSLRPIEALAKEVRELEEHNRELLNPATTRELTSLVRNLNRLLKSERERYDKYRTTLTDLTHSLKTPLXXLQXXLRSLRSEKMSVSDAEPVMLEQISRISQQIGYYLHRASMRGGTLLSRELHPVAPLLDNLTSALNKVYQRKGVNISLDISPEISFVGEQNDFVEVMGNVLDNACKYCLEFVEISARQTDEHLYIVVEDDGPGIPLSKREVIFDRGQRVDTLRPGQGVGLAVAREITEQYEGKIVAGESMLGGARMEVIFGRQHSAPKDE

Variants of: B1
run description: enrichment ratio after two sorts for PhoP signalling (ratio (wild type AVST 3.29)); higher = more functional
stated conditions: with PhoP (E. coli)
Whole data set: some 140,000 sequences, median “enrichment ratio after two sorts for PhoP signalling” near 0, cut for the highest 2% near 11. This is one part of a sample in which the highest values are shown more often than they occur.
Assign MET to entries whose enrichment ratio meets or exceeds 10; assign NOT MET to the rest.

input: Evaluate QVDS : enrichment ratio at minimum 10?
output: NOT MET

input: Evaluate WNMY : enrichment ratio at minimum 10?
output: NOT MET

input: Evaluate STQL : enrichment ratio at minimum 10?
output: MET

input: Evaluate SIQL : enrichment ratio at minimum 10?
output: MET

input: Evaluate SLQL : enrichment ratio at minimum 10?
output: NOT MET
